- tested.system: T1, human GIP receptor (human, UniProt P48546 22-466)
- T1 sequence (looked up): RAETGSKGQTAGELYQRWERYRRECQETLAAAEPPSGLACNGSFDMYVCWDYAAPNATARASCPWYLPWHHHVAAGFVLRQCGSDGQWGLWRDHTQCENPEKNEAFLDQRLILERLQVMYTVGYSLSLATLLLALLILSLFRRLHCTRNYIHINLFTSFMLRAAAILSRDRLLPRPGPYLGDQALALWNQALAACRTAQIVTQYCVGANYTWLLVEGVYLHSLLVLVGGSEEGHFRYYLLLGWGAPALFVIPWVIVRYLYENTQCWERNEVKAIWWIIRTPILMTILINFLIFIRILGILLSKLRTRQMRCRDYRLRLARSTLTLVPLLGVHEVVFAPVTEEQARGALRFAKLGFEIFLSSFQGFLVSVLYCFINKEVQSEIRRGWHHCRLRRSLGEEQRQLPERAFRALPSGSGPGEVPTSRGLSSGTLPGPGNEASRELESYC
- experiment.summary: cell-based or functional assay
*1 amine or outer side, *2 acyl side, *3 side chain or, on linkers, in order; H or OH if unused. Where no end group is shown, it is not given here. Side-chain parts run from the residue outwards. [ ]: non-standard residue; d: D form. The star is where a group is joined. αMePhe(2-F) = C[C@](N)(Cc1ccccc1F)C(=O)O; γGlu = O=C(O)[C@H](CCC(=O)[*:2])N[*:1]; C14 diacid = O=C(O)CCCCCCCCCCCCC(=O)*; αMeY = C[C@](N)(Cc1ccc(O)cc1)C(=O)O; αMeL = CC(C)C[C@](C)(N)C(=O)O; Orn = NCCC[C@H](N)C(=O)O; AEEA = NCCOCCOCC(=O)O; Aib = CC(C)(N)C(=O)O
Mark each entry label 1 if its EC50, cAMP sits below 0.02 nM, and label 0 for all others.

Example cases with answers are listed next.
{"columns": ["binder", "assigned.class"],
 "data": [
  ["Y[Aib]EGT[αMePhe(2-F)]TSDV[Aib]I[αMeL]LD[Orn]K([AEEA-AEEA-γGlu-C14 diacid])AQ[Aib]EFIK([AEEA-AEEA-γGlu-C14 diacid])[αMeY]LIEGGPSSGAPPPS-NH2 [Example 115]", "label 0"],
  ["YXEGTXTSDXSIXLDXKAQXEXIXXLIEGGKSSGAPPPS (Aib2, αMeF(2F)6, 4Pal10, αMeL13, Orn16, Aib20, 2Nal22, D-Glu24, αMeY25, K17 and K31: K(AEEA2-(γ-Glu)-CO-(CH2)12-CO2H), C-terminal NH2) [Example 99]", "label 0"],
  ["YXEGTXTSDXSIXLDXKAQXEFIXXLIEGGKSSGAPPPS (Aib2, αMeF(2F)6, 4Pal10, αMeL13, Orn16, Aib20, D-Glu24, αMeY25, K17 and K31: K(AEEA-(γ-Glu)-(10-(4-carboxyphenoxy)decanoyl)), C-terminal NH2) [Example 12]", "label 1"],
  ["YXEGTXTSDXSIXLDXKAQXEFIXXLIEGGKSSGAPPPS (Aib2, αMeF(2F)6, 4Pal10, αMeL13, Orn16, Aib20, D-Glu24, αMeY25, K17 and K31: K(AEEA2-CO-(CH2)12-CO2H), C-terminal NH2) [Example 9]", "label 1"],
  ["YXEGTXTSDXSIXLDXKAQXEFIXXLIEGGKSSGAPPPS (Aib2, αMeF6, 4Pal10, αMeF13, Orn16, Aib20, D-Glu24, αMeY25, K17 and K31: K(AEEA2-(γ-Glu)-CO-(CH2)12-CO2H), C-terminal NH2) [Example 46]", "label 0"]
]}

Proceed to the following item.
INPUT: Quick check: does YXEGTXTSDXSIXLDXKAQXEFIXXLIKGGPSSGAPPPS (Aib2, αMeF(2F)6, 4Pal10, αMeL13, Orn16, Aib20, D-Glu24, αMeY25, K17 and K28: K(AEEA2-(γ-Glu)-(4-(4-tert-butylphenyl)butanoyl)), C-terminal NH2) [Example 133] have EC50, cAMP under 0.02 nM?
OUTPUT: label 1
